Target: UniProt P09917
Sequence (P09917 whole entry): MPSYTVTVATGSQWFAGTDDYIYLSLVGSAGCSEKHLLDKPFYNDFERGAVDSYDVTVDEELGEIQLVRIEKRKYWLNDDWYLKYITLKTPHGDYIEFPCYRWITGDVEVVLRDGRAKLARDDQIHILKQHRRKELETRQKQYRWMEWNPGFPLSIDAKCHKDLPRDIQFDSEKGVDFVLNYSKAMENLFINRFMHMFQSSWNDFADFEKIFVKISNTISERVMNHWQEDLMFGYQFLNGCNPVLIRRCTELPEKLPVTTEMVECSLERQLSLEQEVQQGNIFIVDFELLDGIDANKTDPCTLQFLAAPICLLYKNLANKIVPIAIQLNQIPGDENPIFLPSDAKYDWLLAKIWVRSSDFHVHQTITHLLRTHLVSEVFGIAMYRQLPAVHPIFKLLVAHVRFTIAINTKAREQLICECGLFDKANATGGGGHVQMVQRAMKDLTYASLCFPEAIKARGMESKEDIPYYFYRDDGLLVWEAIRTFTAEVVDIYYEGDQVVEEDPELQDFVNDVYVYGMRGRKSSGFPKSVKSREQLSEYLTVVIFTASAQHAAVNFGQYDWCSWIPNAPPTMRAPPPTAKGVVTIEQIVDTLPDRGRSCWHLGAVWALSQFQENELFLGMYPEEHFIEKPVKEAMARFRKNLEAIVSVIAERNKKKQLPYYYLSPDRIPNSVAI
Assay: Inhibition of 5-LOX
PROPERTY: IC50 (µM)

molecule="CCCC(O)C#CCOCc1ccccc1 (stereo unspecified)" reading_unit=µM result=760

###

Test system: COLO 205
Assay: Growth inhibition of human COLO205 cells after 48 hrs by MTT assay
Type: functional
Conditions: COLO 205, 48 h
Catalogue of GI50 readings, one per entry.
PROPERTY: GI50 (µM)

molecule="CSc1ccc(COCC#CC(O)c2cccc([N+](=O)[O-])c2)cc1 (stereo not given)" result=71
molecule="COc1cc(C(O)C#CCOCc2ccc(SC)cc2)cc(OC)c1OC (stereo not given)" result=100
molecule="CSc1ccc(COCC#CC(O)c2ccc(F)cc2)cc1 (stereo not given)" result=22
molecule="CSc1ccc(COCC#CC(O)c2ccc(C(C)C)cc2)cc1 (stereo not given)" result=12
molecule="CSc1ccc(COCC#CC(O)c2ccc(C#N)cc2)cc1 (stereo not given)" result=71
